B1: TPR t1 (parent)
chain: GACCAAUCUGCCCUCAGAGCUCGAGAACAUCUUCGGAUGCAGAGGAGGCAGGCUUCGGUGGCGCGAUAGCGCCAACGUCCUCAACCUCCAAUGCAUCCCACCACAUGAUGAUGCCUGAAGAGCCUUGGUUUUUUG

Variants of: B1
assay_name: polymerase ribozyme fitness, log enrichment relative to wild type (log ratio); higher = more active; in vitro selection for triplet polymerase activity
The reader will find reported polymerase ribozyme fitness (log ratio) values listed item by item below.
Respond using a number only.

# count of solved cases: 3
variant_description	polymerase ribozyme fitness (log ratio)
G71U U125A	-1.21
A37U C72U U96A	-0.172
C3A C49A A75U C123U	0.0976

get_value(item= C115U U116C , readout=polymerase ribozyme fitness (log ratio)) returns -2.06

Cited source: the RNAGym collection of RNA variant scans (doi:10.1073/pnas.2313332121)
